Give measured Plant response rating, Foxtail, Giant for each item. Keep answers brief.
System: giant foxtail
PROCEDURE SUMMARY: Test A pre-/postemergence herbicide test
Format: in vivo, Setaria faberi
TEST SETTINGS: Postemergence, 2000 g ai/ha; 0 to 100 scale, 0 no effect, 100 complete control
Answers are plain numbers.

Would you please look over these solved cases?
Quote Plant response rating, Foxtail, Giant reported for CCn1nc(C(C)(C)C)cc1C(=O)Nc1cccc(C(=O)NC2CC2)n1 [Compound 146] please.
40

Quote Plant response rating, Foxtail, Giant reported for CCN(CC)C(=O)c1cccc(NC(=O)c2cc(C(C)(C)C)nn2CC)n1 [Compound 145] please.
60

Next:
Quote Plant response rating, Foxtail, Giant reported for CCn1nc(C(C)(C)C)cc1C(=O)Nc1cccc(C#N)c1 [Compound 139] please.
40

====

Give measured Morningglory plant response rating for each item. Keep answers brief.
System: morningglory
PROCEDURE SUMMARY: Test B pre-/postemergence herbicide test
Type: in vivo, Ipomoea coccinea
TEST SETTINGS: postemergence, 125 g ai/ha; visual rating, scale 0 (no effect) to 100 (complete control)
Give bare numbers.

State, for morningglory, measured Morningglory plant response rating of the compound listed here: CCn1nc(C(C)(C)C)cc1C(=O)Nc1cccc(C(=O)N(C)CC#N)n1
0

State, for morningglory, measured Morningglory plant response rating of the compound listed here: CCn1nc(C(C)(C)C)cc1C(=O)Nc1cccc(C(=O)OC(C)C)c1C
0

State, for morningglory, measured Morningglory plant response rating of the compound listed here: C=CCN(C)C(=O)c1cccc(NC(=O)c2cc(C(C)(C)C)nn2CC)n1
0

State, for morningglory, measured Morningglory plant response rating of the compound listed here: C#CCNC(=O)c1cccc(NC(=O)c2sc(C(C)(C)C)nc2C)c1
0

State, for morningglory, measured Morningglory plant response rating of the compound listed here: CCn1nc(C(C)(C)C)cc1C(=O)Nc1nc(C(=O)OC)ccc1OC
0

// input: 2 compounds below; output: Morningglory plant response rating for each
1. CC(=NO)c1cccc(NC(=O)c2cc(C(C)(C)C)nn2C)c1
2. CCc1cn(C(C)(C)C)nc1C(=O)Nc1cc(C(=O)N(C)C)ccn1

1: 10; 2: 30

// input: 2 compounds below; output: Morningglory plant response rating for each
1. CCc1nc(C(C)(C)C)sc1C(=O)Nc1cc(C(=O)N(C)CC)ccc1F
2. C#CCNC(=O)c1cccc(NC(=O)c2sc(C(C)(C)C)nc2CC)n1

1: 20; 2: 0

====

Give measured Barnyardgrass plant response rating for each item. Keep answers brief.
System: barnyardgrass
PROCEDURE SUMMARY: Test B pre-/postemergence herbicide test
Format: in vivo, Echinochloa crus-galli
TEST SETTINGS: postemergence, 500 g ai/ha; scale 0 to 100, 0 is no effect, 100 is complete control
Numbers only.

Would you please look over these solved cases?
Quote Barnyardgrass plant response rating reported for CCC1=NN(C(C)(C)C)CC1C(=O)Nc1cc(C(=O)N2CCCC2)ccc1F (racemic) please.
20

Quote Barnyardgrass plant response rating reported for CCN1N=C(C(C)(C)C)CC1C(=O)Nc1cc(C(=O)N2CCCCC2)ccc1F (racemic) please.
20

Please turn your attention to the following entry.
Quote Barnyardgrass plant response rating reported for CCC1=NN(C(C)(C)C)CC1C(=O)Nc1cc(C(=O)N2CC=CC2)ccc1F (racemic) please.
20
